test system: alpha-glucosidase enzyme; experiment: Alpha-glucosidase inhibitory activity, enzymatic assay with pNPG; assay type: biochemical, Saccharomyces cerevisiae; settings: alpha-glucosidase; 400 μg/mL
observed-property: % Inhibition at 400 μg/mL (%)
Express it in %; write the number only.

Some entries whose results are on file:
compound: O=c1c(O)c(-c2ccc(O)cc2)oc2cc(O[C@@H]3O[C@H](CO)[C@@H](O)[C@H](O)[C@H]3O)cc(O)c12 [Compound 4, kaempferol 7-O-β-glucopyranoside]
u: %
value-reported: 7.68

compound: COc1cc(O)c2c(=O)c(OC)c(-c3cc(OC)c(OC)c(OC)c3)oc2c1
u: %
value-reported: 8.51

compound: COc1cc(O)c2c(=O)c(OC)c(-c3cc(O)c(OC)c(OC)c3)oc2c1
u: %
value-reported: 12.78

compound: O=c1c(O)c(-c2ccc(O)cc2)oc2cc(O)cc(O)c12
u: %
value-reported: 13.01

Shift focus to the following entry.
Just so you know, measured % Inhibition at 400 μg/mL for C[C@H]1O[C@H](O[C@H]2[C@H](O)[C@@H](O)[C@@H](O[C@H]3[C@H](O)[C@@H](O)C(O)O[C@@H]3CO)O[C@@H]2CO)[C@H](O)[C@@H](O)[C@@H]1N[C@H]1C=C(CO)[C@@H](O)[C@H](O)[C@H]1O (some centres unmarked) [Acarbose, acarbose, reference compound] came out at 60.78
